Biological target: Endothelin receptor ETA (Homo sapiens, UniProt P25101)
Sequence (P25101 21-427): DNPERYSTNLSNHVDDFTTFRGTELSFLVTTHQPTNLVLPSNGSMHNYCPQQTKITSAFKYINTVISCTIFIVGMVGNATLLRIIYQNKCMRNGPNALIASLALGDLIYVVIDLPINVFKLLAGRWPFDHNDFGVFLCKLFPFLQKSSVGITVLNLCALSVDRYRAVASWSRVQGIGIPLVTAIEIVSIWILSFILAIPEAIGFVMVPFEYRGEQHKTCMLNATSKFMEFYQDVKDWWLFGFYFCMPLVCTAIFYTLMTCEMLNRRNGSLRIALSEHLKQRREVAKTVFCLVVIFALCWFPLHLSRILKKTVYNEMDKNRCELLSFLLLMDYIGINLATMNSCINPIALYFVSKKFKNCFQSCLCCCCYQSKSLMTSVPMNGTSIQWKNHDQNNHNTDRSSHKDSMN
pIC50: −log10 of the molar value.
result-type: pIC50

Prompt line: For the compound shown here, COc1cc(C(F)(F)F)c(OC)cc1[C@@H]1CCCNC1 [(S)-11] , give the reported pIC50.
Response line: < 5.00

----------
Assay: LogP / log D determination, 1-octanol/phosphate buffer
Type: physicochemical
Details: pH 7.4, read-out: log D (pH7.4)
result-type: logD
The reply should be a number, written without any unit.

Prompt line: For the molecule shown here, COc1cc(C(F)(F)F)c(OC)cc1[C@@H]1CCCNC1 [(S)-11] , give the reported logD.
Response line: 0.659

----------
Biological target: 5-HT6 (Homo sapiens)
pIC50: −log10 of the molar value.
result-type: pIC50

Prompt line: For the compound shown here, COc1cc(C(F)(F)F)c(OC)cc1[C@@H]1CCCNC1 [(S)-11] , give the reported pIC50.
Response line: 5.00 to 6.00

----------
Target: Prostanoid receptor EP4 (Homo sapiens)
pIC50: −log10 of the molar value.
result-type: pIC50

Prompt line: For the compound shown here, COc1cc(C(F)(F)F)c(OC)cc1[C@@H]1CCCNC1 [(S)-11] , give the reported pIC50.
Response line: < 5.00

----------
Molecular target: H3 (histaminergic receptor) (Homo sapiens, UniProt Q9Y5N1)
pIC50: −log10 of the molar value.
result-type: pIC50

Prompt line: For the molecule shown here, COc1cc(C(F)(F)F)c(OC)cc1[C@@H]1CCCNC1 [(S)-11] , give the reported pIC50.
Response line: < 5.00

----------
Biological target: NMDA receptor (PCP)
Experiment: radioligand competition binding, [3H]TCP
Conditions: estimated from the % inhibition data
result-type: IC50

Prompt line: For the molecule shown here, COc1cc(C(F)(F)F)c(OC)cc1[C@@H]1CCCNC1 [(S)-11] , give the reported IC50.
Response line: > 10 µM

----------
Test: LogP / log D determination, 1-octanol/phosphate buffer
Assay type: physicochemical
Details: pH 12.0, read-out: log D (pH12.0)
result-type: logD
The reply should be a number, written without any unit.

Prompt line: For the compound shown here, COc1cc(C(F)(F)F)c(OC)cc1[C@@H]1CCCNC1 [(S)-11] , give the reported logD.
Response line: 3.5

----------
Target: Epidermal Growth Factor receptor (Homo sapiens)
Sequence (P00533 25-1210): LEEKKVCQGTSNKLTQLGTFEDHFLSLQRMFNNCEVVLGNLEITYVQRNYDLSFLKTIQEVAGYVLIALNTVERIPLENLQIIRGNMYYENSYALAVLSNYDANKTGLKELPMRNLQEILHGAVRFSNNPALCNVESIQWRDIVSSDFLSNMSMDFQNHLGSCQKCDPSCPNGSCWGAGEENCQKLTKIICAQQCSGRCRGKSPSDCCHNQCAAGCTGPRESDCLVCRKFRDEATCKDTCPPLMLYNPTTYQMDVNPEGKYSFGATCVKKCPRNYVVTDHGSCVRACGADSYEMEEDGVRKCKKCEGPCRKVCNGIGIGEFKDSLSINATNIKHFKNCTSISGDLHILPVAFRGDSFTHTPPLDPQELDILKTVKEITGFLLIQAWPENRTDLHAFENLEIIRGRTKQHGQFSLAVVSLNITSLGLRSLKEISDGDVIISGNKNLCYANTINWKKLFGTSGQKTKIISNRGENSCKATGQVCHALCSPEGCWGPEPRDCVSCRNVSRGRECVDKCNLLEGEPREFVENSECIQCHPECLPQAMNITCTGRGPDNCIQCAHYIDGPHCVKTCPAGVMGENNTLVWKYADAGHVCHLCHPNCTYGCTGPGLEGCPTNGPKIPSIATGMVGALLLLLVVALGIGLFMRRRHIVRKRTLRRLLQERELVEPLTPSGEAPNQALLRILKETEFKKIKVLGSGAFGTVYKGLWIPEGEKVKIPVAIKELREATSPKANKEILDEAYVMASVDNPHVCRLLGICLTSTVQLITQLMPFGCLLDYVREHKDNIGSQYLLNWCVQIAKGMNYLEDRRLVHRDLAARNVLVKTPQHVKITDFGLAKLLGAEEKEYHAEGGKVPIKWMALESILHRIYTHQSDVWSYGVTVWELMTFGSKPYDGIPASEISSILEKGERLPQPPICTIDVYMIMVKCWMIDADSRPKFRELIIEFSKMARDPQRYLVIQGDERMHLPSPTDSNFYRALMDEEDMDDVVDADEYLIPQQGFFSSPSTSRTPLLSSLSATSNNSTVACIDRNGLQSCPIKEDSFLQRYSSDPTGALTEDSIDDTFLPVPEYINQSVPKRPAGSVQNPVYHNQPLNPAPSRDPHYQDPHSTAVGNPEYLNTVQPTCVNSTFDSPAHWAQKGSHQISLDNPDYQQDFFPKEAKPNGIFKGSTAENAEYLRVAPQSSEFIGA
pIC50: −log10 of the molar value.
result-type: pIC50

Prompt line: For the molecule shown here, COc1cc(C(F)(F)F)c(OC)cc1[C@@H]1CCCNC1 [(S)-11] , give the reported pIC50.
Response line: < 5.00

----------
Biological target: human 5-HT2AR (Homo sapiens)
Sequence (P28223 whole entry): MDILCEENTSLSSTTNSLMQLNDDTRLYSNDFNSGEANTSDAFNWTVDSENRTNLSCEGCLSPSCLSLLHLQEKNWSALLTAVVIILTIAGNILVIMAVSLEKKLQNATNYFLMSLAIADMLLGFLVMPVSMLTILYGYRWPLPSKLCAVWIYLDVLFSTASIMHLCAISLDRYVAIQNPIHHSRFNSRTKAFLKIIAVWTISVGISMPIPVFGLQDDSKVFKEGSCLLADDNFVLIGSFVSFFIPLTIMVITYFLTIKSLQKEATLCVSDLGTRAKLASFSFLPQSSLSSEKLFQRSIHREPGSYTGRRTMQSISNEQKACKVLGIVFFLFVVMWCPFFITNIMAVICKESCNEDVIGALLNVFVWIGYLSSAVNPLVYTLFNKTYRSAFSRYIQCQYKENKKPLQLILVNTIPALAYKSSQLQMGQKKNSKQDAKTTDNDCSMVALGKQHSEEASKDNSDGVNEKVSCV
Experiment: Ca2+/Fluo-4 assay, agonist mode, stable 5-HT2AR-HEK293 cells
Conditions: read-out: 5-HT2AR EC50; Table 2; at least 3 independent experiments
Lab note: compare EC50 with 700 nM, writing Criterion met if less and Criterion not met if equal or more.

Prompt line: Quick check: EC50 of COc1cc(C(F)(F)F)ccc1C1CCCNC1.Cl (stereo not shown) [Compound 22eu] under 700 nM?
Response line: Criterion met

Prompt line: Param item: CCOc1cc(C(F)(F)F)c(OCC)cc1C1CCCNC1.Cl (stereo not shown) [Compound 26eu]
Response line: Criterion met

Prompt line: Param item: CCOc1cc(C2CCCNC2)c(OC)cc1C(F)(F)F.Cl (stereo not shown) [Compound 25dis]
Response line: Criterion met

Further cases:
Prompt line: Quick check: EC50 of COc1cc(C2CCCNC2)ccc1C(F)(F)F.Cl (stereo not shown) [Compound 23eu] under 700 nM?
Response line: Criterion not met

----------
Biological target: UniProt P48039
pIC50: −log10 of the molar value.
result-type: pIC50

Prompt line: For the compound shown here, COc1cc(C(F)(F)F)c(OC)cc1[C@@H]1CCCNC1 [(S)-11] , give the reported pIC50.
Response line: < 5.00

----------
Target: UniProt P28335
Test: Ca2+/Fluo-4 assay, agonist mode, stable 5-HT2CR-HEK293 cells
Settings: 5-HT2CR pEC50 ± S.E.M., Table S2
result-type: EC50
# number then unit; no other words

Prompt line: For the compound shown here, COc1cc(C(F)(F)F)c(OC)cc1CCN [Compound 18, reference compound] , give the reported EC50.
Response line: 7.59 nM

----------
Molecular target: human 5-HT2CR (Homo sapiens, UniProt P28335)
Sequence (P28335 33-458): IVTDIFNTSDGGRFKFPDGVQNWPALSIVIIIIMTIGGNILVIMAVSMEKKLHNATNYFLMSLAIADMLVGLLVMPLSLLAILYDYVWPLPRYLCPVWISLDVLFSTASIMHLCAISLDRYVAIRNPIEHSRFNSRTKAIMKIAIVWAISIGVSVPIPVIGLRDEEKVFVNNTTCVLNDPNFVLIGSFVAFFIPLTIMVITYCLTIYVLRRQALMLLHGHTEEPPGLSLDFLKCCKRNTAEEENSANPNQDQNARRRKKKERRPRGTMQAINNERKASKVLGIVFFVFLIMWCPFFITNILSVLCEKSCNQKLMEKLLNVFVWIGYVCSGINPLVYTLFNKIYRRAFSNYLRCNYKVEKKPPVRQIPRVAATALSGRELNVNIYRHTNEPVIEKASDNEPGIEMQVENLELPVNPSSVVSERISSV
Experiment: Ca2+/Fluo-4 assay, antagonist mode (5-HT EC90 as agonist), stable 5-HT2CR-HEK293 cells
Conditions: 5-HT2CR IC50, Table 1
result-type: IC50 (nM)
Respond with the bare value in nM.

Prompt line: For the molecule shown here, COc1cc(C2CCCNC2)c(OC)cc1Br (stereo not shown) [Compound 6eu] , give the reported IC50.
Response line: 640

----------
Target: GABAB(1a,2) receptor (Homo sapiens, UniProt Q9UBS5)
Construct: Eurofins
Sequence (Q9UBS5 15-961 limits assumed): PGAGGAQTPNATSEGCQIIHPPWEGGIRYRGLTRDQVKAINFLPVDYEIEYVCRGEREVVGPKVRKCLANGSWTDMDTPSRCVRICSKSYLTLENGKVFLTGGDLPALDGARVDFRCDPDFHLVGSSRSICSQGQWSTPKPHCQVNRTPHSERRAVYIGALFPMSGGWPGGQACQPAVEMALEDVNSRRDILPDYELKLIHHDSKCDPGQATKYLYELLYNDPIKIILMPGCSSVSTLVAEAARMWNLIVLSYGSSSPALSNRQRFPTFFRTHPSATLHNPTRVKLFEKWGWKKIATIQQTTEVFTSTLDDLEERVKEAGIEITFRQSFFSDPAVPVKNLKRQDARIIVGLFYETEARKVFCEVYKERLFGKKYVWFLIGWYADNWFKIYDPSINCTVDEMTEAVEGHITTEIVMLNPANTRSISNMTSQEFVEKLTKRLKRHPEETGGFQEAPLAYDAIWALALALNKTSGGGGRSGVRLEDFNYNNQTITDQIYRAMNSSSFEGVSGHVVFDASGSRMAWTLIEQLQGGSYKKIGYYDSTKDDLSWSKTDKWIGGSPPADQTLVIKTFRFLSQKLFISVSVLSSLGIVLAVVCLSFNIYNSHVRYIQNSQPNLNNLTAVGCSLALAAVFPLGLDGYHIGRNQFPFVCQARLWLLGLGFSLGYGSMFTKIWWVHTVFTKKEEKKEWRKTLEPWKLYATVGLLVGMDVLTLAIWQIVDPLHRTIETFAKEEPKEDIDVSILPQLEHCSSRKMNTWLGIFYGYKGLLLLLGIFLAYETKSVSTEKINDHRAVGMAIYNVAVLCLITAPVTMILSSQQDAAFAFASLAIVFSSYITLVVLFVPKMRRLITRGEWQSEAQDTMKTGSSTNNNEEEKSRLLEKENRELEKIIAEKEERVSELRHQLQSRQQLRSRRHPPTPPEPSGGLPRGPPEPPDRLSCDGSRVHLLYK
Sequence (O75899 42-941 partner): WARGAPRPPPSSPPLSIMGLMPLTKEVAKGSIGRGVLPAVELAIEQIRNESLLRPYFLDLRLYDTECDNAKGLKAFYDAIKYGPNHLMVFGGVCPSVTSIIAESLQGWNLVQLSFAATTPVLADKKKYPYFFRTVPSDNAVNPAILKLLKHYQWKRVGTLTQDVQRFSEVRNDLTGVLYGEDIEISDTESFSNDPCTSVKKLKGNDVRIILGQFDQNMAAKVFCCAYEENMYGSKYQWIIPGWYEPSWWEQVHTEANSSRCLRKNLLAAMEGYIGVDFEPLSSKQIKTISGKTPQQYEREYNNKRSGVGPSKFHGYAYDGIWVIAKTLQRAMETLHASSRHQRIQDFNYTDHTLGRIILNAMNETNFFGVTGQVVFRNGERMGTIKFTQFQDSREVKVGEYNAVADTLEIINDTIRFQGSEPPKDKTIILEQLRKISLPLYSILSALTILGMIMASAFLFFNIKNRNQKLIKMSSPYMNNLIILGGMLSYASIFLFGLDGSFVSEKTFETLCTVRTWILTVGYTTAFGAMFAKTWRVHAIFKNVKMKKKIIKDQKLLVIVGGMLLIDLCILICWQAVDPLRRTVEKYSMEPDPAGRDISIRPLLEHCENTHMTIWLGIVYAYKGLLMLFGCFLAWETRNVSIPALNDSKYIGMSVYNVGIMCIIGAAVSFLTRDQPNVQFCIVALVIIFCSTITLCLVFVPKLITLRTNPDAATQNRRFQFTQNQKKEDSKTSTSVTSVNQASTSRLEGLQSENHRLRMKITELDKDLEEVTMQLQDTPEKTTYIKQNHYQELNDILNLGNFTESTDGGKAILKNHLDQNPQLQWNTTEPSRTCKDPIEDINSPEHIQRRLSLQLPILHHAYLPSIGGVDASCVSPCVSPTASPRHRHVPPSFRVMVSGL
Assay: radioligand competition binding, [3H]CGP-54626
Details: estimated from the % inhibition data
result-type: IC50

Prompt line: For the compound shown here, COc1cc(C(F)(F)F)c(OC)cc1[C@@H]1CCCNC1 [(S)-11] , give the reported IC50.
Response line: > 10 µM

----------
Biological target: UniProtKB P28335
Assay: Ca2+/Fluo-4 assay, agonist mode, stable 5-HT2CR-HEK293 cells
Settings: read-out: 5-HT2CR EC50; Table 2; at least 3 independent experiments
result-type: EC50 (nM)
Respond with the bare value in nM.

Prompt line: For the compound shown here, CCOc1cc(C2CCCNC2)c(OC)cc1C(F)(F)F.Cl (stereo not shown) [Compound 25eu] , give the reported EC50.
Response line: 290

Prompt line: Param item: COc1cc(C(F)(F)F)ccc1C1CCCNC1.Cl (stereo not shown)
Response line: 1400

Consider the additional compound presented here.
Prompt line: For the compound shown here, COc1cc(C2CCCNC2)ccc1C(F)(F)F.Cl (stereo not shown) , give the reported EC50.
Response line: 1400

----------
Target: M3 (muscarinic receptor) (Homo sapiens)
Sequence (P20309 whole entry): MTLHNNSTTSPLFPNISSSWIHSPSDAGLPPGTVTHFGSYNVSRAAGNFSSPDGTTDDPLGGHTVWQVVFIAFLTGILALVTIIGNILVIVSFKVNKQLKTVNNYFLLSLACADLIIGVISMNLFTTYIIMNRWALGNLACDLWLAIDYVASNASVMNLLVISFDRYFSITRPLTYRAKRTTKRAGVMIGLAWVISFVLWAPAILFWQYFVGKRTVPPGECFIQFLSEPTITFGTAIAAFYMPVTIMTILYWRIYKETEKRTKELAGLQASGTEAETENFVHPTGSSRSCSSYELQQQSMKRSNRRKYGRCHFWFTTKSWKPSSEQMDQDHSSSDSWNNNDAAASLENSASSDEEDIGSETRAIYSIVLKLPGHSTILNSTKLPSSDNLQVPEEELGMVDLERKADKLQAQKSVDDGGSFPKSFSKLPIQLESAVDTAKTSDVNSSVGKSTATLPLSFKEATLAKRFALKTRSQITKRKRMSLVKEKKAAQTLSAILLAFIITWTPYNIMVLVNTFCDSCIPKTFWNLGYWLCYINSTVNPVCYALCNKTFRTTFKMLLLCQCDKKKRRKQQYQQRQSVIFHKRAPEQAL
result-type: IC50

Prompt line: For the compound shown here, COc1cc(C(F)(F)F)c(OC)cc1[C@@H]1CCCNC1 [(S)-11] , give the reported IC50.
Response line: ~1 µM

----------
In this section, each of the compounds is paired with its reported Papp A→B at […].
Test system: MDR1 (P-gp)
Experiment: MDR1-MDCK II permeability assay
Type: in vitro ADME
Conditions: dog, MDCK-MDR1, pH 7.4
# number then unit; no other words

These solved cases illustrate the format of a correct answer.
Prompt line: For the compound shown here, COCCc1ccc(OCC(O)CNC(C)C)cc1 (stereo not shown) , give the reported Papp A→B at […].
Response line: 24.2 ×10⁻⁶ cm/s

Prompt line: Param item: `C[C@H]1O[C@@H](O[C@H]2[C@@H](O)C[C@H](O[C@H]3[C@@H](O)C[C@H](O[C@H]4CC[C@@]5(C)[C@H](CC[C@@H]6[C@@H]5C[C@@H](O)[C@]5(C)[C@@H](C7=CC(=O)OC7)CC[C@]65O)C4)O[C@@H]3C)O[C@@H]2C)C[C@H](O)[C@@H]1O`
Response line: 0.22 ×10⁻⁶ cm/s

Prompt line: Param item: COc1cc(C(F)(F)F)c(OC)cc1[C@@H]1CCCNC1 [(S)-11]
Response line: 18.4 ×10⁻⁶ cm/s

Further cases:
Prompt line: For the compound shown here, CC(C)(C)NCC(O)COc1cccc2c1CC(O)C(O)C2 (stereo not shown) , give the reported Papp A→B at […].
Response line: 0.54 ×10⁻⁶ cm/s

----------
Target: human 5-HT2CR (Homo sapiens, UniProt P28335)
Assay: Ca2+/Fluo-4 assay, antagonist mode (5-HT EC90 as agonist), stable 5-HT2CR-HEK293 cells
Settings: 5-HT2CR pIC50 ± S.E.M., Table S2
result-type: IC50 (nM)
Respond with the bare value in nM.

These solved cases illustrate the format of a correct answer.
Prompt line: For the molecule shown here, COc1cc(C2CCCNC2)c(OC)cc1I (centres unmarked) , give the reported IC50.
Response line: 1100

Prompt line: Param item: COc1cc(C2CCCNC2)c(OC)cc1Cl (centres unmarked)
Response line: 871

Prompt line: Param item: COc1cc(C2CCCNC2)c(OC)cc1Br (centres unmarked)
Response line: 631

Further cases:
Prompt line: For the molecule shown here, COc1cc(C(F)(F)F)c(OC)cc1[C@@H]1CCCNC1 [(S)-11] , give the reported IC50.
Response line: 316

----------
Experiment: LogP / log D determination, 1-octanol/phosphate buffer
Format: physicochemical
Conditions: pH 1.8, read-out: Log D (pH 1.8)
Experimental: LogP Log D log D log D log D log D log D log D Phosphate buffer (PB) with the pH ranging from 1.8 to 12.0 and Octanol saturated with water was used. 2 μL of 10 mM DMSO stock solution of test and control compounds was aliquoted into tubes in duplicate. […] was added, respectively. […] These samples were diluted and detected by using LC -MS/MS method without running a calibration curve. The log D values were calculated with the following equation: […]
result-type: logD
The reply should be a number, written without any unit.

Prompt line: For the molecule shown here, COc1cc(C(F)(F)F)c(OC)cc1[C@@H]1CCCNC1 [(S)-11] , give the reported logD.
Response line: -0.815
